Ref: PubChem BioAssay

- Protocol Text: LAP4-GFP expression modulators in yeast, confirmation, cell-based, cherry picks, flow cytometry, mother/daughter gates (AID 2271);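 further: ratio of sample to DMSO plate mean so 100% equals DMSO level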
- Run Parameters: S. cerevisiae LAP4-GFP strain, 3 h, at 10 µM, hits give high values
Measurement Type: GFP response relative to DMSO (%)
Report as a plain number; the unit % is understood.

Reference set, count: 2
{"columns": ["Compound", "Measurement Type", "Result Units", "Experimental Value"],
 "data": [
  ["O=C1NC(=O)N(Cc2ccco2)C(=O)/C1=C\\c1ccc(-c2ccc(F)cc2)o1", "GFP response relative to DMSO", "%", 119],
  ["CN1CCN(c2ccc([N+](=O)[O-])c(Sc3ccccn3)c2)CC1", "GFP response relative to DMSO", "%", 95.4]
]}

Can you share its GFP response relative to DMSO? I mean this compound: Cc1cccn2c(NCC3CCCO3)c(C(C)C)nc12 (stereo not drawn) 97.7

###

- Target: Beta-2 adrenergic receptor (Homo sapiens) (UniProt P07550)
- Sequence (P07550 whole entry, looked up): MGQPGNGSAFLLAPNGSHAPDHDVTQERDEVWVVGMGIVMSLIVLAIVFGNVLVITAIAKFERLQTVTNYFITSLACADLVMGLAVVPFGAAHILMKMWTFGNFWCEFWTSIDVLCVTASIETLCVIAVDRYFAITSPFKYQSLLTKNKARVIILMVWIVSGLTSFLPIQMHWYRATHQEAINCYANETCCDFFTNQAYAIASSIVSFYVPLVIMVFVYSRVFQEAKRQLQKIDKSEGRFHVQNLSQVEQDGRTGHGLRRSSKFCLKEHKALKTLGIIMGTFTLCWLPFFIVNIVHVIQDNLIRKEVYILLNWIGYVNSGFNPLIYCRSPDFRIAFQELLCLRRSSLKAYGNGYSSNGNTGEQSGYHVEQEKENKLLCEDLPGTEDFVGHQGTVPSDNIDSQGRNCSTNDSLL
- Protocol Text: beta2AR agonists driving receptor internalization, pilot screen, cell-based, FAP fluorogen, flow cytometry, validation set (AID 504459);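 further: agonist-driven loss of surface beta2AR via internalization measured by FAP dye flow cytometry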
- Run Parameters: Am2.2-beta2AR cells, FAP surface receptor flow cytometry; at 10 µM; hits give high values
Measurement Type: response (%)
Give the number; % is assumed, so skip it.

{"columns": ["Compound", "Target", "Result Units", "response"],
 "data": [
  ["C=C1[C@@H](C)[C@H]2[C@H](Cc3ccccc3)NC(=O)[C@]23OC(=O)/C=C/[C@H](O)CCC[C@@H](C)C/C=C/[C@H]3[C@@H]1O", "Beta-2 adrenergic receptor (Homo sapiens) (UniProt P07550)", "%", 36.2],
  ["COc1ccc(CN2CC3CC(C2)c2cccc(=O)n2C3)cc1OC (stereo unspecified)", "Beta-2 adrenergic receptor (Homo sapiens) (UniProt P07550)", "%", 2.8],
  ["CC(C)CC12CN3CCN(CC(C3)C1O)C2 (stereo unspecified)", "Beta-2 adrenergic receptor (Homo sapiens) (UniProt P07550)", "%", 4.34],
  ["O=C1CSC2N1CCNC21CCCCC1 (stereo unspecified)", "Beta-2 adrenergic receptor (Homo sapiens) (UniProt P07550)", "%", 2.41],
  ["CCOC(=O)C(C)Oc1cc(C)cc2oc(=O)c3c(c12)CCCC3 (stereo unspecified)", "Beta-2 adrenergic receptor (Homo sapiens) (UniProt P07550)", "%", 1.66]
]}

Look up response: `O=c1[nH]c2ccccc2n1CCCN1CCC(n2c(=O)[nH]c3cc(Cl)ccc32)CC1` 2.71

Please report the recorded response for `c1cnc2c(c1)ccc1ncccc12` . -15

For the compound shown here, C[N+]1(C)[C@@H]2CC[C@H]1CC(OC(=O)C(CO)c1ccccc1)C2 (stereo partly specified) , give the reported response. -8.13

// query response value for entry CC(C)NC(C)C(=O)c1ccc2ccccc2c1 (stereo unspecified) 14.8

# get_value(readout='response', item= `Cc1c2ccncc2c(C)c2c1[nH]c1ccccc12` ) -323

So what's the measured response for this one? CC12CCC3C(CC=C4CC5(CCC43C)OCCO5)C1CCC2=O (stereo unspecified) 0.6

###

- Target: Lethal factor (Bacillus anthracis) (UniProt P15917)
- Sequence (P15917 whole entry, looked up): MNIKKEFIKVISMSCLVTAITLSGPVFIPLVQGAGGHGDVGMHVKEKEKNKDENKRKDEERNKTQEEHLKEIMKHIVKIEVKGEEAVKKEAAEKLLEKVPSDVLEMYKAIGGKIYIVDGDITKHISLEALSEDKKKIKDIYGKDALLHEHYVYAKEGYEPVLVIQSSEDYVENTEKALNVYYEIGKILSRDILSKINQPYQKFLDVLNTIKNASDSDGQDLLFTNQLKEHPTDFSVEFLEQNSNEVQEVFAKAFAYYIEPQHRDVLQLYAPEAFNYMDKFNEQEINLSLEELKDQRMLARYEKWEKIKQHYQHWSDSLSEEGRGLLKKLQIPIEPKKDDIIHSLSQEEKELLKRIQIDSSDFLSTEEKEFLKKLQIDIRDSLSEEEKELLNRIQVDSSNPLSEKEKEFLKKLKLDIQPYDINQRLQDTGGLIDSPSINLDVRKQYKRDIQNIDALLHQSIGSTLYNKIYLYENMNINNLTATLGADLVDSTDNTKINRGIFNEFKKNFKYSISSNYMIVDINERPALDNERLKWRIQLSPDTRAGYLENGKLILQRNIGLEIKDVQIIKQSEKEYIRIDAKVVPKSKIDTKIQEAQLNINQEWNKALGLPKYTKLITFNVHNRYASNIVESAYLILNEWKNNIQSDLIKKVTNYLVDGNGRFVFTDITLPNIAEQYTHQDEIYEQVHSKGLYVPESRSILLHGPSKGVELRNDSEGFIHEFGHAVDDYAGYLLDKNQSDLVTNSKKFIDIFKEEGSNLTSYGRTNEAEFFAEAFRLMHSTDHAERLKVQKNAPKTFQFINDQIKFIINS
- Protocol Text: Lethal factor protease inhibitors, Bacillus anthracis, multiplex microsphere cleavage assay, validation set (AID 588461)
- Run Parameters: flow cytometry, at 10 µM, hits give high values
Measurement Type: inhibition (%)
Express your answer in %, writing the number without its unit.

{"columns": ["Molecule", "Experimental Value"],
 "data": [
  ["N#Cc1c2c(c(-c3ccccc3)[nH]c1=O)CCCC2", 2.3],
  ["COc1ccc(Cc2noc(CN(C)CCN3CCc4ccccc4C3)n2)cc1OC", -7.4],
  ["COc1ccc(-c2nnc(-c3cc4c(ccc5ccccc54)oc3=O)o2)cc1", -1.7],
  ["C[C@]12CCC(=O)C=C1CC[C@@H]1[C@@H]2[C@@H](O)C[C@@]2(C)[C@H]1CC[C@]2(O)C(=O)COC(=O)CCC(=O)O", -8],
  ["CCOC(=O)C(Cc1cc(C(C)=O)ccc1OC(C)C)C(=O)OCC", -1.9]
]}

What does the data say about its inhibition? Entry: `N/C(=N\OC(=O)c1cccc(Br)c1)c1ccncc1` -3.1

Given `C[C@H](NC(=O)C1(c2ccccc2)CCN(C(=O)[C@H]2CSCN2C(=O)OC(C)(C)C)CC1)C(=O)O` , state its recorded inhibition. -10.5

###

- Protocol Text: modulators of MEP2-GFP levels in yeast, confirmation, S. cerevisiae, flow cytometry GFP, cherry picks (AID 2272);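 further: ratio of well signal to plate DMSO mean so 100% equals DMSO level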
- Run Parameters: S. cerevisiae MEP2-GFP strain, 3 h, at 10 µM
Active and inactive are the calls of the source.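 How the source made its calls: active means GFP response above 150% of the DMSO control; inconclusive means Fewer than 70 cells counted for a yeast strain; inactive means the rest.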
Use one of these outcomes when replying: 1.0 for active, 0.0 for inactive

Would you please look over these solved cases?
{"columns": ["Compound", "Label Class"],
 "data": [
  ["O=C(O)c1[nH]c(=O)[nH]c(=O)c1F", 0.0],
  ["Nc1ccc2ccc3cccc[n+]3c2c1", 1.0],
  ["O=c1[nH]c(=S)n(-c2ccccc2)c(O)c1/C=N/N1CCOCC1", 0.0]
]}

Now turn to the next compound.
// param item: `O=c1oc2ccccc2c(O)c1[C@H]1c2ccc(O)cc2Oc2c1c(=O)oc1ccccc21` ; yields the recorded call 0.0

###

Recorded inhibition by entry
- Target: Lethal factor (Bacillus anthracis)
- Protocol Text: Lethal factor protease inhibitors, Bacillus anthracis, multiplex microsphere cleavage assay, validation set (AID 588461)
- Run Parameters: flow cytometry, at 10 µM, hits give high values
Answer in %, number only, no unit symbol.

Please review the following examples before continuing.
{"columns": ["Compound", "Target", "Measurement Type", "Experimental Value"],
 "data": [
  ["COc1ccc(O)c(C2=Nc3ccccc3N=C(c3ccccc3)C2)c1", "Lethal factor (Bacillus anthracis)", "inhibition", 4.2],
  ["COc1ccc(/C=C\\C(=O)c2c(O)ccc3c(C)cc(=O)oc23)cc1OC", "Lethal factor (Bacillus anthracis)", "inhibition", -2.9],
  ["CCCCCCCC(=O)OCC(O)CO (stereo unspecified)", "Lethal factor (Bacillus anthracis)", "inhibition", -2],
  ["COc1ccc(CN2CCCC(C(=O)c3ccc(Cl)cc3)C2)cc1Cn1cccn1 (stereo unspecified)", "Lethal factor (Bacillus anthracis)", "inhibition", 3.9]
]}

// lookup inhibition for CCC(C(=O)OCCN(CC)CC)c1ccccc1 (stereo unspecified) 3.3

// inhibition lookup, key: `O=C(/C=C/c1ccc2c(c1)OCO2)c1ccccn1` -2.8

###

- Protocol Text: modulators of MEP2-GFP levels in yeast, primary screen, S. cerevisiae, multiplex flow cytometry (AID 1867);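 further: median GFP channel fluorescence of barcode-gated MEP2-GFP cells measured by flow cytometry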
- Run Parameters: S. cerevisiae MEP2-GFP strain, 3 h, at 10 µM, hits give high values
Inconclusive results are not listed. The source made the active and inactive calls.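 The calls were made as follows: active = GFP response, as percent of the DMSO control, above the screen-wide mean plus 3 SD, about 139; inconclusive = no response measured because the compound's own fluorescence interfered; inactive = the rest.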
Measurement Type: GFP response vs DMSO

Look over these answered cases.
{"columns": ["Compound", "Measurement Type", "Experimental Value"],
 "data": [
  ["CC12CN3CC(C)(CN(C1)C3c1cccs1)C2O (stereo not given)", "GFP response vs DMSO", "98.3% (inactive)"],
  ["CC(C)(C)NCC(O)c1cc(Cl)c(N)c(Cl)c1 (stereo not given)", "GFP response vs DMSO", "102% (inactive)"],
  ["COc1ccc(OC)c([C@@H](O)[C@H](C)NC(C)(C)C)c1", "GFP response vs DMSO", "102% (inactive)"],
  ["C[C@H]1CC[C@@]2(C)[C@@H](CC[C@@H]3[C@@H]2CC[C@]2(C)[C@@H](O)CC[C@@H]32)C1", "GFP response vs DMSO", "103% (inactive)"]
]}

Shifting focus to the compound that follows.
Could you share which GFP response vs DMSO value was measured for CCOc1ccc(C2C(C#N)=C(N)Oc3c2c(=O)oc2ccccc32)cc1 (stereo not given) ? 99.6% (inactive)

###

- Protocol Text: modulators of MEP2-GFP levels in yeast, primary screen, S. cerevisiae, multiplex flow cytometry (AID 1867);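 further: median GFP channel fluorescence of barcode-gated MEP2-GFP cells measured by flow cytometry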
- Run Parameters: S. cerevisiae MEP2-GFP strain, 3 h, at 10 µM
Inconclusive results are not listed. Activity calls are given as the source filed them.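 How the source made its calls: active means GFP response, as percent of the DMSO control, above the screen-wide mean plus 3 SD, about 139; inconclusive means no response measured because the compound's own fluorescence interfered; inactive means the rest.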
Your reply should match one of these outcome classes. active, inactive

Illustrative cases are given below, each with its answer.
{"columns": ["Molecule", "Label Class"],
 "data": [
  ["C[C@H]1CCC/C=C/C2C[C@H](O)CC2[C@H](O)/C=C/C(=O)O1 (stereo partly specified)", "inactive"],
  ["CC12CN3CC(C)(CN(C1)C3c1cccnc1)C2=O (stereo unspecified)", "inactive"],
  ["COc1cc2c3cc1Oc1cc(ccc1O)C[C@@H]1c4c(cc(OC)c(O)c4Oc4ccc(cc4)C[C@H]3N(C)CC2)CCN1C", "inactive"],
  ["CC(C)CCC1(CN2CCCC2=O)C(=O)NC(=O)NC1=O", "inactive"],
  ["CCCC[N+]1(C)[C@@H]2CC(OC(=O)[C@H](CO)c3ccccc3)C[C@H]1[C@@H]1O[C@@H]12 (stereo partly specified)", "inactive"]
]}

Given Fc1ccc(C(OCCN2CCCC2)c2ccc(Br)cc2)cc1 (stereo unspecified) , state the outcome it received in this test. inactive

What outcome does the record of this test show for COc1ccccc1CN1CCCCC1c1cccnc1 (stereo unspecified) ? inactive

Look up the recorded call for `Cc1cccc(C)c1NC1=NCCCS1` in this test. inactive

What outcome does the record of this test show for `O=C1CN=C(c2ccccc2F)c2cc(Cl)ccc2N1` ? active

Query: recorded result category for CC12CN3CC(C)(CN(C1)C3c1cccs1)C2=O (stereo unspecified) in this test inactive

Dear colleague, could you share the recorded outcome for CC[N+]1(C)CCCC(OC(=O)C(O)(c2ccccc2)c2ccccc2)C1 (stereo unspecified) when you have a moment? inactive
